# Test system: GALIUM APARINE
# method notes: Preemergence herbicidal evaluation, GALAP (Galium)
# Type: in vivo
# run parameters: Rate 0.250 kg/ha, rated four to five weeks after treatment
Provide the recorded GALAP herbicidal rating for the entries that follow.
Answer with a bare number; do not write a unit.

Lookup: Param readout = GALAP herbicidal rating; param system = GALIUM APARINE; param query = Cn1c(=O)n(CC(=O)OC(C)(C)C)c(=O)n(-c2cc(Oc3ccc(C(F)(F)F)cc3Cl)ccc2Cl)c1=O ; response: value
Found: 4.5

Lookup: Check COC(=O)Cn1c(=O)n(C)c(=O)n(-c2cc(Oc3ccc([S+](C)[O-])cc3Cl)ccc2[N+](=O)[O-])c1=O (stereo not shown) too.
Found: 0.0

Lookup: Then what about the compound COC(=O)Cn1c(=O)n(C)c(=O)n(-c2cc(Oc3c(F)cc(C(F)(F)F)cc3Cl)ccc2[N+](=O)[O-])c1=O ?
Found: 9.0

Lookup: Also Cn1c(=O)n(CC(=O)OC(C)(C)C)c(=O)n(-c2cc(Oc3c(F)cc(C(F)(F)F)cc3Cl)ccc2[N+](=O)[O-])c1=O ?
Found: 9.0

* * *

# Test system: CASSIA OBTUSIFOLIA, L.
# method notes: Postemergence herbicidal evaluation, CASOB (Sicklepod)
# Type: in vivo
# Set-up: key: 0-9 visual rating scale vs untreated control
# run parameters: Rate 0.125 kg/ha
Provide the reported CASOB rating of each item.

Lookup: I would be grateful if you could share the reported CASOB rating for COC(=O)Cn1c(=O)n(C)c(=O)n(-c2cc(Oc3cc(Cl)cc(Cl)c3Cl)ccc2[N+](=O)[O-])c1=O .
Found: 0.0

Lookup: Then what about the compound COC(=O)Cn1c(=O)n(C)c(=O)n(-c2cc(Oc3ccc(C(F)(F)F)cc3Cl)ccc2Cl)c1=O ?
Found: 9.0

Lookup: Try Cn1c(=O)n(CC(N)=O)c(=O)n(-c2cccc(Oc3ccc(C(F)(F)F)cc3Cl)c2)c1=O next.
Found: 0.0

Lookup: Another: COC(=O)Cn1c(=O)n(C)c(=O)n(-c2cc(Oc3ccc(C#N)cc3)ccc2[N+](=O)[O-])c1=O
Found: 0.0

Lookup: Next: COC(=O)Cn1c(=O)n(C)c(=O)n(-c2cc(Oc3cc(Cl)cc(Cl)c3)ccc2[N+](=O)[O-])c1=O
Found: 0.0

Lookup: Repeat for the following compound: CC(C)OC(=O)Cn1c(=O)n(C)c(=O)n(-c2cc(Oc3ncc(C(F)(F)F)cc3Cl)ccc2Br)c1=O
Found: 9.0

Lookup: Please give the result for COC(=O)Cn1c(=O)n(C)c(=O)n(-c2cc(Oc3ncc(C(F)(F)F)cc3Cl)ccc2Br)c1=O too.
Found: 9.0

* * *

# System: CHENOPODIUM ALBUM, L.
# method notes: Postemergence herbicidal evaluation, CHEAL (Lambsquarters, Common);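 also: higher means more injury with 8 approaching complete kill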
# Type: in vivo
# run parameters: Rate 0.125 kg/ha
# Protocol: In the tests, seedling plants are grown in jiffy flats for about two weeks. The test compounds are dispersed in 50/50 acetone/water mixtures containing 0.5% TWEEN®20, a polyoxyethylene sorbitan monolaurate surfactant of Atlas Chemical Industries, […] to the plants through a spray nozzle operating at 40 psi for a predetermined time. After spraying, the plants are placed on greenhouse benches and are cared for in the usual manner, commensurate with conventional greenhouse practices. […]
metric name: CHEAL
Please give only the number in your answer, with no unit.

Lookup: For the compound shown here, Cn1c(=O)[nH]c(=O)n(-c2cccc(Oc3ccc(C(F)(F)F)cc3Cl)c2)c1=O [E, reference compound] , give the reported CHEAL.
Found: 7.0

Lookup: Another compound to look at: COC(=O)Cn1c(=O)n(C)c(=O)n(-c2cc(Oc3ccc(C(F)(F)F)cc3Cl)ccc2Cl)c1=O
Found: 9.0

Lookup: Also need Cn1c(=O)[nH]c(=O)n(-c2cc(Oc3c(F)cc(C(F)(F)F)cc3Cl)ccc2[N+](=O)[O-])c1=O [D, reference compound] , thanks.
Found: 9.0

Lookup: Request: COC(=O)Cn1c(=O)n(C)c(=O)n(-c2cc(Oc3c(F)cc(C(F)(F)F)cc3Cl)ccc2[N+](=O)[O-])c1=O
Found: 6.5

Lookup: // next record Cn1c(=O)[nH]c(=O)n(-c2cc(Oc3ccc(C(F)(F)F)cc3Cl)ccc2Cl)c1=O [F, reference compound]
Found: 8.0
